Data origin: PubChem BioAssay (Tox21)

procedure.details: qHTS assay to identify small molecule antagonists of the estrogen related receptor (ERR) signaling pathway from Tox21 library (AID 1224848); further: nearly all actives have a fitted effect of over 50% in size
run.parameters: ERR reporter cell line, luciferase antagonist mode, 18 h; series mostly up to 92.4 µM
Results filed as inconclusive are left out. Activity calls are given as the source filed them. The call rests on the fitted dose curve; in most records, active means well fitted inhibition curve with a large enough effect in the repeat runs; inconclusive means weak or mixed curves; inactive means no such curve, though single readings can be large or run the other way.
Select the correct class. Options are Yes for active, No for inactive and nothing else.

IN: Dear colleague, could you share the recorded outcome for Clc1cccc(SC2CCNCC2)n1 when you have a moment?
OUT: No

IN: Each molecule tested received a call. Report the one for O=C1NCN(c2ccccc2)C12CCN(CCCOc1ccc(F)cc1)CC2 .
OUT: No

IN: What did this assay record as the result for CC[C@H]1C[C@H]2[C@@H]3CCC4=CC(=O)CC[C@@H]4[C@H]3CC[C@]2(C)[C@H]1O ?
OUT: Yes

IN: Each molecule tested received a call. Report the one for N#Cc1cc(I)c(O)c(I)c1 .
OUT: Yes

IN: I'd appreciate the recorded outcome for CCBr from this test.
OUT: No

IN: Please let me know the test result on file for CC(=O)C(C)(C)C .
OUT: No

IN: # outcome recorded in this test, key = OC(c1ccc(Cl)cc1)(c1ccc(Cl)cc1)c1cccnc1
OUT: Yes
